Data credit: the supplement of paper PMC8728848

Can you tell me glycan array binding signal (z-score) for the items I'm about to list?
- system.name: Fuc(a1-2)Gal(b1-3)GlcNAc
- test.summary: glycan array binding signal (z-score within array); higher = stronger binding
- condition.set: glycan notation: IUPAC condensed, linker removed
Only a selection was taken, and the strongest signals are over-represented in it overall.
The reply should be a number, written without any unit.

Q: For CpGal16 (Clavelina picta) (protein) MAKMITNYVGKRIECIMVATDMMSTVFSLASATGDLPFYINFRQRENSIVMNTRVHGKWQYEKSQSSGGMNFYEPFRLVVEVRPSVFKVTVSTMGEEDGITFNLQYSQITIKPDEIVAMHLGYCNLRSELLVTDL , what is its reported glycan array binding signal (z-score)?
Result: 2.93

Q: Another binder to check: Intelectin 1 (Homo sapiens), Q8WWA0 (protein) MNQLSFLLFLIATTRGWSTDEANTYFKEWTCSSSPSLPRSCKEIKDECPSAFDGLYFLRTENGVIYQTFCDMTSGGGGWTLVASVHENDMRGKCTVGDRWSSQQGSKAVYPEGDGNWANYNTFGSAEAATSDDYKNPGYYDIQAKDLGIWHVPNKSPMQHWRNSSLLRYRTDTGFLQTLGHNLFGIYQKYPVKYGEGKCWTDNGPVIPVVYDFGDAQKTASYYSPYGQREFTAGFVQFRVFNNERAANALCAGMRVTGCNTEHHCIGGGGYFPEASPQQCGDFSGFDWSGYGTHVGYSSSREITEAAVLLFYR
Result: 0.069

Q: Another binder to check: CML1 (Coprinopsis cinerea) (protein) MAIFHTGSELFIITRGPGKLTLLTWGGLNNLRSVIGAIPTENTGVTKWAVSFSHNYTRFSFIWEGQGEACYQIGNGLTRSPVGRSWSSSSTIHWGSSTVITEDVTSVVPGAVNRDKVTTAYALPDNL
Result: 5.31
